Reference source: patent US6558922B1

assay.system: UniProtKB Q9FYZ9
Sequence (Q9FYZ9 1-364): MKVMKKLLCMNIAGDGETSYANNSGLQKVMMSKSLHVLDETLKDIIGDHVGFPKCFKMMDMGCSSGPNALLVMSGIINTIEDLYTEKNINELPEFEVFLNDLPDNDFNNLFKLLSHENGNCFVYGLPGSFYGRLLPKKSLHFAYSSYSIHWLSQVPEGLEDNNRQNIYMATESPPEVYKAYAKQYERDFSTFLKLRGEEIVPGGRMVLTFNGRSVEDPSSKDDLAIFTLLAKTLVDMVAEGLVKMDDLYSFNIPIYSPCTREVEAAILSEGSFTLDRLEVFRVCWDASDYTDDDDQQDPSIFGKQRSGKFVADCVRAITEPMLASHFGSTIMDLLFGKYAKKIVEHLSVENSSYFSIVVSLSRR
test.summary: Product inhibition kinetics of methylation reaction by SAH
run.parameters: Ki value of SAH for SAM, competitive with respect to SAM; BA fixed at 4 mM
assay.endpoint: Ki (µM)
Report as a plain number; the unit µM is understood.

[in] Let me know recorded Ki for Nc1ncnc2c1ncn2[C@@H]1O[C@H](CSCC[C@H](N)C(=O)O)[C@@H](O)[C@H]1O [SAH, S-adenosyl-L- homocysteine] , thanks.
[out] 7
